# Test system: HCI-002 (organoid from a triple-negative breast cancer xenograft)
# METHOD_DESCRIPTION: CTG-3D luminescence at 96 h relative to day-0 seeding control (ratio to day 0); higher = more growth / less cytotoxicity; PDxO 3D drug screen, 96 h, CTG-3D normalised to day-0 seeding control.
# MEASUREMENT_SETUP: 625 fM; days in culture: 227
CTG-3D luminescence at 96 h by entry:
// return a plain number; no unit text

Solved entries (count: 2):
NC(=O)c1cccc2cn(-c3ccc([C@@H]4CCCNC4)cc3)nc12 = 5.51
CCN1CCN(Cc2ccc(Nc3ncc(F)c(-c4cc(F)c5nc(C)n(C(C)C)c5c4)n3)nc2)CC1 = 5.64

Case `CC[C@H](NC(=O)[C@H](C)NC)C(=O)N1C[C@@H](O)C[C@H]1Cc1c(-c2[nH]c3cc(F)ccc3c2C[C@@H]2C[C@H](O)CN2C(=O)[C@H](CC)NC(=O)[C@H](C)NC)[nH]c2cc(F)ccc12` , HCI-002, CTG-3D luminescence at 96 h recorded as 6.13

Case `C[C@@H]1COCCN1c1cc(C2([S@](C)(=N)=O)CC2)nc(-c2cc[nH]c3nccc2-3)n1` , HCI-002, CTG-3D luminescence at 96 h recorded as 6.05
